Reference source: the supplement of paper PMC10567573

B1: TFE3 (parent)
chain: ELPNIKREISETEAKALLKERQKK

variants of: B1; assay: protein stability index of a GFP-peptide fusion (GPS, HEK-293T) (PSI 1-6); higher = more stable; details: c terminus: a fixed tail appended;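 note: lentivirally expressed fusions sorted by FACS into six bins by GFP to DsRed ratio, PSI derived from sequencing read proportions per bin multiplied by bin number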
Below is a list of entries, each paired with its recorded protein stability index value.
No unit in the answer, please; the number alone is enough.

Recorded results for 4 variants are shown here.
ELPNIKREISEMEAKALLKERQKK [T12M] ... 4.26
ELPNIKREISETEAKALLEERQKK [K19E] ... 2.62
ELPNIKFEISETEAKALLKERQKK [R7F] ... 2.44
ELPNIKREISETEAKAHLKERQKK [L17H] ... 2.12

Pending variant:
Query: For the variant ELPNIKREISETEAKALLLERQKK [K19L] , what protein stability index is on record?
Response: 2.84
